Value source: the array DNA melting data of Ke et al. (doi:10.1101/2024.01.08.574731)

Provide the recorded folding enthalpy for the entries that follow.
assay: folding enthalpy; higher = less favourable; fluorescence melt of hairpins on a sequencing array, two-state fit; settings: sodium 0.088 M
Record the value in kcal/mol, omitting the unit from your answer.

// GCCCAAGGAAACCTAGGC (((.(.(....).).))) : folding enthalpy value = -22.2

// GCAGCGCGAAAGCATTGC (((..((....))..))) : folding enthalpy value = -14

// GCGCCGCGAAAGCGCCGC (((.(((....))).))) : folding enthalpy value = -22.4

// GATCTCTTCTGAGATC ((((((....)))))) : folding enthalpy value = -39.8

// GGAGTCGAAAGACGTCC ((((((....))).))) : folding enthalpy value = -14.7

// GTCCTACGAAAGTAGAC (((.(((....)))))) : folding enthalpy value = -18.1

====

test: folding enthalpy; higher = less favourable; fluorescence melt of hairpins on a sequencing array, two-state fit; settings: sodium 0.088 M
Threshold check on folding enthalpy: at or above -20 kcal/mol gives YES, strictly below gives NO.

## Input Check the entry GCCAGAGGAAACCCTGGC (((((.(....).))))) : does folding enthalpy equal or exceed -20 kcal/mol?
## Output NO

## Input Check the entry GATGCCGAAAGGCCTATC ((((((....)))..))) : does folding enthalpy equal or exceed -20 kcal/mol?
## Output YES

## Input Check the entry GATCGAGCGCTCGATC ((((((....)))))) : does folding enthalpy equal or exceed -20 kcal/mol?
## Output NO

## Input Check the entry GCAGTGCGAAAGCGATGC (((..((....))..))) : does folding enthalpy equal or exceed -20 kcal/mol?
## Output NO

## Input Check the entry GGCACTGGAAACAGTACC ((.((((....)))).)) : does folding enthalpy equal or exceed -20 kcal/mol?
## Output NO

## Input Check the entry GTGGCATCGAAAGATCAC (((..(((....)))))) : does folding enthalpy equal or exceed -20 kcal/mol?
## Output YES

## Input Check the entry GGGTGTCGAAAGACTCCC (((.(((....))).))) : does folding enthalpy equal or exceed -20 kcal/mol?
## Output NO

## Input Check the entry GCGGGTGGCCGC ((((....)))) : does folding enthalpy equal or exceed -20 kcal/mol?
## Output YES

## Input Check the entry GATCCATAATTGGATC ((((((....)))))) : does folding enthalpy equal or exceed -20 kcal/mol?
## Output NO

## Input Check the entry GATCATTCTATGATC ((((((...)))))) : does folding enthalpy equal or exceed -20 kcal/mol?
## Output NO

## Input Check the entry GCGGTCCCGAAAGGGCGC (((..(((....)))))) : does folding enthalpy equal or exceed -20 kcal/mol?
## Output YES

## Input Check the entry GAAACCGGAAACGGTTCC (.(((((....))))).) : does folding enthalpy equal or exceed -20 kcal/mol?
## Output YES

## Input Check the entry GGTTCTTCGAAAGAAACC (((..(((....)))))) : does folding enthalpy equal or exceed -20 kcal/mol?
## Output YES

## Input Check the entry GTATCCGAAAGGATTTAC ((((((....)))..))) : does folding enthalpy equal or exceed -20 kcal/mol?
## Output YES

## Input Check the entry GCTACAGAAATGTAGC ((((((....)))))) : does folding enthalpy equal or exceed -20 kcal/mol?
## Output NO

## Input Check the entry GCTAGACGAAAGTCCAGC (((.(((....))).))) : does folding enthalpy equal or exceed -20 kcal/mol?
## Output NO

## Input Check the entry GAGCCCGAAAGGGATCTC ((((((....)))..))) : does folding enthalpy equal or exceed -20 kcal/mol?
## Output NO

## Input Check the entry GGACGCGGAAACGCGCCC ((.((((....)))).)) : does folding enthalpy equal or exceed -20 kcal/mol?
## Output YES

## Input Check the entry GACTCTCCGAAAGGAGTC (((..(((....)))))) : does folding enthalpy equal or exceed -20 kcal/mol?
## Output YES

## Input Check the entry GTTTTCGCGAAAGCGAAC (((..(((....)))))) : does folding enthalpy equal or exceed -20 kcal/mol?
## Output YES

## Input Check the entry GCATCGCGAAAGCCTTGC (((..((....))..))) : does folding enthalpy equal or exceed -20 kcal/mol?
## Output YES

## Input Check the entry GTGCCTGGAAACAGGTAC ((.((((....)))).)) : does folding enthalpy equal or exceed -20 kcal/mol?
## Output NO

## Input Check the entry GGGGCCGGAAACAGCCCC (((((.(....).))))) : does folding enthalpy equal or exceed -20 kcal/mol?
## Output NO

## Input Check the entry GCGCAGCGAAAGCTCAGC ((..(((....)))..)) : does folding enthalpy equal or exceed -20 kcal/mol?
## Output YES

## Input Check the entry GATCGGGACACCGATC ((((((....)))))) : does folding enthalpy equal or exceed -20 kcal/mol?
## Output NO

====

assay: melting temperature; fluorescence melt of hairpins on a sequencing array, two-state fit, raised by 9.35 °C to match UV melts; settings: sodium 0.088 M
Threshold check on Tm: at or above 40 °C gives met, strictly below gives not met.

## Input Check the entry GGATTCGGAAACGGATTC (.((.((....)).)).) : does Tm equal or exceed 40 °C?
## Output not met

## Input Check the entry GCTGTCGAAAGACCCAGC ((((((....)))..))) : does Tm equal or exceed 40 °C?
## Output not met

## Input Check the entry GATCTATGATAGATC ((((((...)))))) : does Tm equal or exceed 40 °C?
## Output not met

## Input Check the entry GCGGGTGGAAACACTCGC (((.(((....))).))) : does Tm equal or exceed 40 °C?
## Output met

## Input Check the entry GATCTAGAGTTAGATC ((((((....)))))) : does Tm equal or exceed 40 °C?
## Output not met

## Input Check the entry AAAGCGAAAGCTTT (((((....))))) : does Tm equal or exceed 40 °C?
## Output met

## Input Check the entry GATCTTGAGCAAGATC ((((((....)))))) : does Tm equal or exceed 40 °C?
## Output met

## Input Check the entry GTAAGGGCGAAAGCCTAC (((..(((....)))))) : does Tm equal or exceed 40 °C?
## Output not met

## Input Check the entry GCAAAGCGAAAGCTCTGC (((.(((....))).))) : does Tm equal or exceed 40 °C?
## Output met

## Input Check the entry GCTATGCGAAAGCTTTGC ((.(.((....)).).)) : does Tm equal or exceed 40 °C?
## Output met

## Input Check the entry GCGAATTCTCGC ((((....)))) : does Tm equal or exceed 40 °C?
## Output met

====

assay: folding enthalpy; higher = less favourable; fluorescence melt of hairpins on a sequencing array, two-state fit; settings: sodium 0.088 M
Provide the recorded folding enthalpy for the entries that follow.
Record the value in kcal/mol, omitting the unit from your answer.

// GATTGCGAAAGCAACATC ((((((....)))..))) : folding enthalpy value = -9.24

// GATCTAGTGATAGATC ((((((....)))))) : folding enthalpy value = -34.5

// GCATCTGGAAACAGATAC (.(((((....))))).) : folding enthalpy value = -16.8

// GGGTCAGGAAACTGGTCC ((..(((....)))..)) : folding enthalpy value = -30.1

// GCCAGGCGAAAGCCACGC ((..(((....)))..)) : folding enthalpy value = -13.1

// GATCCTGTTAAGGATC ((((((....)))))) : folding enthalpy value = -48.7

// GAGGGGACGAAAGTCCTC (((..(((....)))))) : folding enthalpy value = -8.85

// GCTCAGCGAAAGCCCAGC (((..((....))..))) : folding enthalpy value = -12.1

// CGTTCGGAAACGATACG ((((((....))).))) : folding enthalpy value = -27.1

// GATCTTCTCAAAGATC ((((((....)))))) : folding enthalpy value = -33.4

// GTCGTAGGAAACTATGAC (((.(((....))).))) : folding enthalpy value = -35.4

// GTTGGGGGAAACTCCGAC ((.((.(....).)).)) : folding enthalpy value = -25.9

// GCTACCGGAAACGACAGC (((..((....))..))) : folding enthalpy value = -15.8

// GATTCCGAAAGGAGCATC ((((((....)))..))) : folding enthalpy value = -11.6

// GTGCCCGAAAGGGGTCAC ((((((....)))..))) : folding enthalpy value = -15.7

// GGGTAGCGAAAGCTTCCC (((.(((....))).))) : folding enthalpy value = -36.5

// GTTGAGGGAAACTTCGAC ((.((.(....).)).)) : folding enthalpy value = -20.3

// GGGACCCCGAAAGGGCCC (((..(((....)))))) : folding enthalpy value = -20.3

// GTAGGGGGAAACTCCTAC (((((.(....).))))) : folding enthalpy value = -28.5

// GTTACAGAAATGTAAC ((((((....)))))) : folding enthalpy value = -33.4

// GGCTGCGAAAGCACTGCC ((((((....)))..))) : folding enthalpy value = -20.5

// GTGCCCGAAAGGGGACAC ((((((....)))..))) : folding enthalpy value = -12.2

// GCATCGCGAAAGCGCGGC ((..(((....)))..)) : folding enthalpy value = -14.8

// GCGGAAGCCGC ((((...)))) : folding enthalpy value = -15.7

// GATCGAGATTCGATC ((((((...)))))) : folding enthalpy value = -41.4
